# measured.on: T1, human PCSK9 (human, UniProt Q8NBP7 31-692, limits assumed)
# T1 construct: also called hPCSK9; huPCSK9
# test.name: SPR Biacore 3000, captured IgG, hPCSK9 injected, pH 7.4
measurement.name: pKd
Remember the convention: pKd equals -log10 of concentration in molar.

Guide cases for pKd, answers given:
{"binder": "5L1721H23_6H3 (antibody, V domains shown, Only CDRs printed; Full-length IgG) VH: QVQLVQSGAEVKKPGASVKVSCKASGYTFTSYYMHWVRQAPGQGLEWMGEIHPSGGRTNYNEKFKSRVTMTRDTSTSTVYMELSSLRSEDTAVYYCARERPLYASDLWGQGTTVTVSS VL: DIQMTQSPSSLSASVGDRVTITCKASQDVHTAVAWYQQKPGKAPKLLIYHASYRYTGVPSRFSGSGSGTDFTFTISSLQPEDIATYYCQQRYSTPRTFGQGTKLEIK", "pKd": 8.14}
{"binder": "5L1721H23_6L3 (antibody, V domains shown, Tested as full-length IgG; also called heavy UC-H5H23, light UC-H5L1721-6L3) VH: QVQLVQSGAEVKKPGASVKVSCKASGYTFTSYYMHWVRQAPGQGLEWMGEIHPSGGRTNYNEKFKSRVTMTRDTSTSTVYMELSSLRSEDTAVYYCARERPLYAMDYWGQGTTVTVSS VL: DIQMTQSPSSLSASVGDRVTITCKASQDVHTAVAWYQQKPGKAPKLLIYHASYRYTGVPSRFSGSGSGTDFTFTISSLQPEDIATYYCQQRYSLWRTFGQGTKLEIK", "pKd": 8.16}

Enquiry: GET /values?readout=pKd&item= 6L1721H23 (antibody, V domains shown, L1L3-based mutant; Full-length IgG) VH: QVQLVQSGAEVKKPGASVKVSCKASGYTFTSYYMHWVRQAPGQGLEWMGEIHPFGGRTNYNEKFKSRVTMTRDTSTSTVYMELSSLRSEDTAVYYCARERPLYASDLWGQGTTVTVSS VL: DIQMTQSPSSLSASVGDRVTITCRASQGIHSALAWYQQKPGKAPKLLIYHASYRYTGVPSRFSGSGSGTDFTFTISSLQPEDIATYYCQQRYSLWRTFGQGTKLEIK
Return: 8.40

Enquiry: What value of measured pKd is listed for 5L1721H23 (antibody, V domains shown, Triple histidine mutant of h5A10; Only CDRs printed; Full-length IgG) VH: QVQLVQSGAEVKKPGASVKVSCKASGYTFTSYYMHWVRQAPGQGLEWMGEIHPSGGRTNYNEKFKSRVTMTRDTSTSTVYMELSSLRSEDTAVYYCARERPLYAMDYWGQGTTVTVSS VL: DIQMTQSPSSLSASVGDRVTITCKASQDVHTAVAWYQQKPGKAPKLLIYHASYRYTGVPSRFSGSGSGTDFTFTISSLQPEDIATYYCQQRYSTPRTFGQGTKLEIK ?
Return: 7.89
